- Measured on: Urotensin-2 receptor (Homo sapiens)
- Test parameters: CHO-K1
- Description: Ability to displace radioligand [125I]Tyr-hU-II from human recombinant Urotensin 2 receptor in CHO-K1 cells
Bridge positions count the residues as written; N and C are the ends. Square brackets hold non-standard residues; d marks the D form. Peptide text beside a SMILES is read from it. dPen = CC(C)(S)[C@@H](N)C(=O)O

Compound	pD2
CC(C)[C@H](NC(=O)[C@@H]1NC(=O)[C@H](Cc2ccc(O)cc2)NC(=O)[C@H](CCCCN)NC(=O)[C@H](Cc2c[nH]c3ccccc23)NC(=O)[C@H](Cc2ccccc2)NC(=O)[C@H](NC(=O)[C@@H](N)CC(=O)O)CSSC1(C)C)C(=O)O	6.7
CC(C)[C@H](NC(=O)[C@@H]1CSSC[C@@H](NC(=O)[C@@H](N)CC(=O)O)C(=O)N[C@@H](Cc2ccccc2)C(=O)N[C@@H](Cc2c[nH]c3ccccc23)C(=O)N[C@@H](CCCCN)C(=O)N[C@@H](Cc2ccc(O)cc2)C(=O)N1)C(=O)O (H-D[dC]FWKYCV-OH; disulfide 2-7)	8.6
CC(C)[C@H](NC(=O)[C@@H]1NC(=O)[C@H](Cc2ccc(O)cc2)NC(=O)[C@H](CCCCN)NC(=O)[C@H](Cc2c[nH]c3ccccc23)NC(=O)[C@H](Cc2ccccc2)NC(=O)[C@H](NC(=O)[C@@H](N)CC(=O)O)C(C)(C)SSC1(C)C)C(=O)O (H-D[dPen]FWKY[dPen]V-OH; disulfide 2-7)	8.2
CC(C)[C@H](NC(=O)[C@@H]1CSSC(C)(C)[C@@H](NC(=O)[C@@H](N)CC(=O)O)C(=O)N[C@@H](Cc2ccccc2)C(=O)N[C@@H](Cc2c[nH]c3ccccc23)C(=O)N[C@@H](CCCCN)C(=O)N[C@@H](Cc2ccc(O)cc2)C(=O)N1)C(=O)O (H-D[dPen]FWKYCV-OH; disulfide 2-7)	9.6
CC(C)[C@H](NC(=O)[C@@H]1CSSC[C@@H](NC(=O)[C@H](CC(=O)O)NC(=O)[C@H]2CCCN2C(=O)[C@@H](NC(=O)[C@@H](N)CCC(=O)O)[C@@H](C)O)C(=O)N[C@H](Cc2ccccc2)C(=O)N[C@@H](Cc2c[nH]c3ccccc23)C(=O)N[C@H](CCCCN)C(=O)N[C@@H](Cc2ccc(O)cc2)C(=O)N1)C(=O)O	8.3
